# experimental system: Neuropeptides B/W receptor type 1 (Homo sapiens)
# Sequence (P48145 whole entry): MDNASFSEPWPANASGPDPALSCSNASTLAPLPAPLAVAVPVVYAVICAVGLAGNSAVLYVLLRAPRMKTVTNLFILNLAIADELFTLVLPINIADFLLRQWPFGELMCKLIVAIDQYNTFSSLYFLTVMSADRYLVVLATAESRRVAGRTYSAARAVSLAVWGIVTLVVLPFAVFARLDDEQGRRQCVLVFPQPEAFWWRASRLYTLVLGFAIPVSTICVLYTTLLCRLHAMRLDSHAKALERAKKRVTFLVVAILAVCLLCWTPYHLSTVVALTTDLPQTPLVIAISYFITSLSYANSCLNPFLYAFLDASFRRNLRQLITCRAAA
# method notes: Agonist activity at human NPBWR1 expressed in CHO-RD-HGA16 cells measured by calcium mobilization assay
# Assay type: functional, cell-based
Non-standard residues stand in square brackets, D forms with d. Residues, ends and D or L forms follow the SMILES beside them. *: point of attachment. Propanoyl(3-indol-3-yl) = O=C(CCc1c[nH]c2ccccc12)*; Tle = CC(C)(C)[C@H](N)C(=O)O; Ava = NCCCCC(=O)O
assay readout: EC50 (µM)
# value in µM; strip the unit string

- molecule: "CC(C)C[C@H](NC(=O)CNC(=O)[C@H](C)NC(=O)[C@H](C)NC(=O)[C@H](CCCNC(=N)N)NC(=O)CNC(=O)CCCCNC(=O)CCCCNC(=O)CCCCNC(=O)[C@H](CCCCN)NC(=O)[C@@H](NC(=O)[C@@H](N)Cc1c[nH]c2ccccc12)[C@@H](C)O)C(=O)N[C@H](C(N)=O)C(C)(C)C (H-WTK[Ava][Ava][Ava]GRAAGL[Tle]-NH2)"
  experimental system: "Neuropeptides B/W receptor type 1 (Homo sapiens)"
  measurement units: "µM"
  EC50: 0.479
- molecule: "CC(C)C[C@H](NC(=O)[C@H](CC(C)C)NC(=O)CNC(=O)[C@H](C)NC(=O)[C@H](C)NC(=O)[C@H](CCCNC(=N)N)NC(=O)CNC(=O)CCCCNC(=O)CCCCNC(=O)CCCCNC(=O)[C@H](CCCCN)NC(=O)[C@H](Cc1ccc(O)cc1)NC(=O)[C@H](Cc1c[nH]c2ccccc12)NC(=O)CCc1c[nH]c2ccccc12)C(N)=O ({Propanoyl(3-indol-3-yl)}-WYK[Ava][Ava][Ava]GRAAGLL-NH2)"
  experimental system: "Neuropeptides B/W receptor type 1 (Homo sapiens)"
  measurement units: "µM"
  EC50: 0.008
- molecule: "CC(C)C[C@H](NC(=O)CNC(=O)[C@H](C)NC(=O)[C@H](C)NC(=O)[C@H](CCCNC(=N)N)NC(=O)CNC(=O)CCCCNC(=O)CCCCNC(=O)CCCCNC(=O)[C@H](C)NC(=O)[C@H](Cc1ccc(O)cc1)NC(=O)[C@@H](N)Cc1c[nH]c2ccccc12)C(=O)N[C@@H](CO)C(=O)N[C@@H](CO)C(N)=O (H-WYA[Ava][Ava][Ava]GRAAGLSS-NH2)"
  experimental system: "Neuropeptides B/W receptor type 1 (Homo sapiens)"
  measurement units: "µM"
  EC50: 0.478
- molecule: "CC(C)C[C@H](NC(=O)[C@@H](CC(C)C)NC(=O)CNC(=O)[C@H](C)NC(=O)[C@H](C)NC(=O)[C@H](CCCNC(=N)N)NC(=O)CCCCNC(=O)CCCCNC(=O)CCCCNC(=O)[C@H](CCCCN)NC(=O)[C@H](Cc1ccc(O)cc1)NC(=O)[C@@H](N)Cc1c[nH]c2ccccc12)C(N)=O"
  experimental system: "Neuropeptides B/W receptor type 1 (Homo sapiens)"
  measurement units: "µM"
  EC50: 0.53
- molecule: "CC(C)C[C@H](NC(=O)[C@H](CC(C)C)NC(=O)CNC(=O)[C@H](C)NC(=O)[C@@H](C)NC(=O)[C@H](CCCNC(=N)N)NC(=O)CCCCNC(=O)CCCCNC(=O)CCCCNC(=O)[C@H](CCCCN)NC(=O)[C@H](Cc1ccc(O)cc1)NC(=O)[C@@H](N)Cc1c[nH]c2ccccc12)C(N)=O"
  experimental system: "Neuropeptides B/W receptor type 1 (Homo sapiens)"
  measurement units: "µM"
  EC50: 0.578

Next:
The molecule identified as CC(C)C[C@H](NC(=O)CNC(=O)[C@H](C)NC(=O)[C@H](C)NC(=O)[C@H](CCCNC(=N)N)NC(=O)CCCCNC(=O)CCCCNC(=O)CCCCNC(=O)[C@H](CCCCN)NC(=O)[C@H](Cc1ccc(O)cc1)NC(=O)[C@@H](N)Cc1c[nH]c2ccccc12)C(=O)N[C@H](CC(C)C)C(N)=O registered its EC50 at 0.463

---

# method notes: Metabolic stability in male Sprague-Dawley rat plasma assessed as compound remaining at 1 uM measured after […] by LC-MS/MS analysis
# Format: ADME, cell-free
# assay conditions: read-out: Stability
Non-standard residues stand in square brackets, D forms with d. Residues, ends and D or L forms follow the SMILES beside them. *: point of attachment. Propanoyl(3-indol-3-yl) = O=C(CCc1c[nH]c2ccccc12)*; Ava = NCCCCC(=O)O
Measured remaining at 0.25 h, 1 µM of individual entries
Value expressed in %; do not type the unit.

- molecule: "CC(C)C[C@H](NC(=O)[C@H](CC(C)C)NC(=O)CNC(=O)[C@H](C)NC(=O)[C@H](C)NC(=O)[C@H](CCCNC(=N)N)NC(=O)CNC(=O)CCCCNC(=O)CCCCNC(=O)CCCCNC(=O)[C@H](CCCCN)NC(=O)[C@H](Cc1ccc(O)cc1)NC(=O)[C@H](Cc1c[nH]c2ccccc12)NC(=O)CCc1c[nH]c2ccccc12)C(N)=O ({Propanoyl(3-indol-3-yl)}-WYK[Ava][Ava][Ava]GRAAGLL-NH2)"
  assay readout: "remaining at 0.25 h, 1 µM"
  experimental value: 86

Next, consider the following molecule.
For this molecule ( CC(C)C[C@H](NC(=O)CNC(=O)[C@H](CO)NC(=O)[C@H](CC(C)C)NC(=O)[C@H](CC(C)C)NC(=O)CNC(=O)[C@H](C)NC(=O)[C@H](C)NC(=O)[C@H](CCCNC(=N)N)NC(=O)CNC(=O)[C@@H](NC(=O)[C@H](CO)NC(=O)[C@H](Cc1ccc(O)cc1)NC(=O)[C@H](CO)NC(=O)[C@H](CO)NC(=O)[C@H](Cc1cnc[nH]1)NC(=O)CNC(=O)[C@H](C)NC(=O)[C@H](C)NC(=O)[C@@H]1CCCN1C(=O)[C@H](CCCCN)NC(=O)[C@H](Cc1ccc(O)cc1)NC(=O)[C@@H](N)Cc1c[nH]c2ccccc12)C(C)C)C(N)=O ), measured remaining at 0.25 h, 1 µM is 48

---

# method notes: Metabolic stability in male Sprague-Dawley rat plasma assessed as half-life at 1 uM measured after 240 mins by LC-MS/MS analysis
# Format: ADME, cell-free
Non-standard residues stand in square brackets, D forms with d. Residues, ends and D or L forms follow the SMILES beside them. *: point of attachment. Propanoyl(3-indol-3-yl) = O=C(CCc1c[nH]c2ccccc12)*; Ava = NCCCCC(=O)O
assay readout: half-life at 1 µM (min)
I only need the number, in min, no unit after it.

Reported half-life at 1 µM ( CC(C)C[C@H](NC(=O)[C@H](CC(C)C)NC(=O)CNC(=O)[C@H](C)NC(=O)[C@H](C)NC(=O)[C@H](CCCNC(=N)N)NC(=O)CNC(=O)CCCCNC(=O)CCCCNC(=O)CCCCNC(=O)[C@H](CCCCN)NC(=O)[C@H](Cc1ccc(O)cc1)NC(=O)[C@H](Cc1c[nH]c2ccccc12)NC(=O)CCc1c[nH]c2ccccc12)C(N)=O ({Propanoyl(3-indol-3-yl)}-WYK[Ava][Ava][Ava]GRAAGLL-NH2) ) = 39.1
